system: Hepatitis C virus; experiment: Antiviral activity against wild type HCV genotype 1a infected in human HuH7 cells after 48 hrs by luciferase reporter gene assay; type: functional, organism-based, Hepacivirus hominis; conditions: subtype 1a, Huh-7, 48 h
pEC50: −log10 of the molar value.
Metric: pEC50

For record CC1(C)CN(C2CCN(C(=O)c3nc4c(C(F)(F)F)cc(-c5ccoc5)cn4c3Cl)CC2)C(=O)O1 the listed pEC50 is 5.00

pEC50 recorded for this compound, O=C(c1nc2c(C(F)(F)F)cc(C3CC3)cn2c1Cl)N1CCN([C@H]2CC[C@H](O)CC2)C(=O)C1 , is 9.09

[I] O=C(c1nc2c(C(F)(F)F)cc(-c3ccoc3)cn2c1Cl)N1CCN([C@H]2CC[C@H](O)CC2)C(=O)C1
[II] O=C(c1nc2c(C(F)(F)F)cc(-c3ccoc3)cn2c1Cl)N1CCN(c2ccccc2)C(=O)C1
Response body: label of entry with the larger pEC50; valid values I , II . Your answer should be the label of the entry you select.
I

[I] O=C(NCc1cccs1)c1cc2nc(-c3ccco3)cc(C(F)(F)Cl)n2n1
[II] CN1CCN(C(=O)c2nc3c(C(F)(F)F)cc(-c4ccoc4)cn3c2Cl)CC1=O
[III] O=C(c1nc2c(C(F)(F)F)cc(-c3ccoc3)cn2c1Cl)N1CCC(N2CCCC2=O)CC1
List from greatest to least pEC50. A complete answer lists every label in the requested sequence.
III, I, II
(III: 6.59, I: 6.13, II: 4.74)

---

system: Hepatitis C virus; test: Antiviral activity against wild type HCV genotype 1a infected in human HuH7 cells after 48 hrs by luciferase reporter gene assay; format: functional, organism-based, Hepacivirus hominis; details: subtype 1a, Huh-7, 48 h
Metric: EC50 (nM)

[P] O=C(c1nc2c(C(F)(F)F)cc(-c3ccoc3)cn2c1Cl)N1CCC(c2ccncc2)C1 (racemic)
[Q] O=C(c1nc2c(C(F)(F)F)cc(-c3ccoc3)cn2c1Cl)N1CCN([C@H]2CC[C@@H](O)CC2)C(=O)C1
[R] O=C(c1nc2c(C(F)(F)F)cc(-c3ccoc3)cn2c1Cl)N1CCC(N2C(=O)COC2=O)CC1
Please list these molecules in decreasing order of EC50. Response field: labels, in requested order.
P, Q, R
(P: 380 nM, Q: 150 nM, R: 20 nM)

---

system: Hepatitis C virus; assay: Antiviral activity against HCV genotype 1b expressing NS4B V105M mutant stably infected in human HuH7 cells after 48 hrs by luciferase reporter gene assay; format: functional, organism-based, Hepacivirus hominis; settings: Huh-7, 48 h
Metric: EC50 (nM)
Express your answer in nM, writing the number without its unit.

Value of measured EC50 for the entry O=C(c1nc2c(C(F)(F)F)cc(C3CC3)cn2c1Cl)N1CCN([C@H]2CC[C@H](O)CC2)C(=O)C1 : 800

---

assay: Clearance in Sprague-Dawley rat at 1 mg/kg, iv; type: ADME, organism-based; set-up: dose 1 mg/kg, route intravenous; details: in vivo
Metric: clearance (mL/min/kg)

// sample O=C(c1nc2c(C(F)(F)F)cc(C3CC3)cn2c1Cl)N1CCN([C@H]2CC[C@H](O)CC2)C(=O)C1 , its clearance was 20

[1] O=C(c1nc2c(C(F)(F)F)cc(-c3ccoc3)cn2c1Cl)N1CCC(N2C(=O)COC2=O)CC1
[2] O=C(c1nc2c(C(F)(F)F)cc(-c3ccoc3)cn2c1Cl)N1CCC(N2CCOC2=O)CC1
Which value of clearance is smaller, the one for 1 or the one for 2 ? // output: label of the selected item
1
